All values here come from patent US20050272770A1.

molecular target: human recombinant p38α protein kinase (Homo sapiens); construct: purchased UBI 14-251; host or cells: E. coli; test: Human p38α MAP kinase inhibition assay (cell-free, phosphorylation of myelin basic protein); type: biochemical; conditions: in vitro, human p38α MAP kinase, Table I; read-out: IC50 p38α
Sequence (Q16539 whole entry): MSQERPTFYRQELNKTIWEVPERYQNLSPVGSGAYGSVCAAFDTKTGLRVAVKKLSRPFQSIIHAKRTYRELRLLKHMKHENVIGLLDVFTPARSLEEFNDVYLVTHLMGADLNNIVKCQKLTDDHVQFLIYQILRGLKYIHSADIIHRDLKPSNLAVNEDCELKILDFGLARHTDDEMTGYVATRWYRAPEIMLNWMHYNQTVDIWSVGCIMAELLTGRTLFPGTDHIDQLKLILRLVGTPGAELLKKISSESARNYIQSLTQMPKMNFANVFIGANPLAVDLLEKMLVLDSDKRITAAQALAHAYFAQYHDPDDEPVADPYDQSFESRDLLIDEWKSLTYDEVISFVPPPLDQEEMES
pIC50: −log10 of the molar value.
# Lookup of reported pIC50 keyed by entry
recordedMetric: pIC50

molecule="CC(C)c1nc(N(C)S(C)(=O)=O)nc(-c2ccc(F)cc2)c1/C=C/[C@@H](O)C[C@@H](O)CC(=O)O [Rosuvastatin calcium]" recordedmetric=pIC50 valuerelationsign== assayvalue=4.04
molecule="CC(C)c1c(C(=O)Nc2ccccc2)c(-c2ccccc2)c(-c2ccc(F)cc2)n1CC[C@@H](O)C[C@@H](O)CC(=O)O [Atorvastatin calcium]" recordedmetric=pIC50 valuerelationsign=< assayvalue=4.00

====

Molecular target: rat liver HMG-CoA reductase (Rattus norvegicus)
Sequence (P51639 1-887): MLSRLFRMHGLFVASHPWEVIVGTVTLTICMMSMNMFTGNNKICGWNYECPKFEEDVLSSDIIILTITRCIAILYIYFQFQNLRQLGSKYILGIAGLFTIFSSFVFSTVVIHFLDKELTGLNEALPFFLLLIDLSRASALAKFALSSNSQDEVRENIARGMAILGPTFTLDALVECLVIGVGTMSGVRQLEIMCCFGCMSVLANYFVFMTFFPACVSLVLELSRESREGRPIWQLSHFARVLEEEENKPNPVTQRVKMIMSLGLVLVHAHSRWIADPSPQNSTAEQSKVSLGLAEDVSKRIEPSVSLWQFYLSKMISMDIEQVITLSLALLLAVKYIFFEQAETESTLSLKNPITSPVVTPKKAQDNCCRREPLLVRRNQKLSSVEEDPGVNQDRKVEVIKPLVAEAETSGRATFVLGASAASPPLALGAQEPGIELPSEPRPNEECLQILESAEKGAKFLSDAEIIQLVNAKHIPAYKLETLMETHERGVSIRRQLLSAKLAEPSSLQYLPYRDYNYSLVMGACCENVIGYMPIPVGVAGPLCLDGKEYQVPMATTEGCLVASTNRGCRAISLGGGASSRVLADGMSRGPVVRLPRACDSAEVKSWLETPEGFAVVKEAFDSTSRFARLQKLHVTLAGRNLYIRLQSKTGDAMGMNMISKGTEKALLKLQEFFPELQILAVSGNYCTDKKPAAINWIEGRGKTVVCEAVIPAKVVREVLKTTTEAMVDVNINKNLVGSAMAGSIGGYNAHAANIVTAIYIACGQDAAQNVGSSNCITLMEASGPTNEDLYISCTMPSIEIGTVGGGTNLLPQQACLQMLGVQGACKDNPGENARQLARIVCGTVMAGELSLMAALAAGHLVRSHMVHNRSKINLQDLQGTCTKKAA
Where a name gives a salt, the structure may show the parent alone.
# Lookup of reported IC50 keyed by entry
recordedMetric: IC50 (nM)

molecule="O=C(O)C[C@H](O)C[C@H](O)/C=C/c1c(-c2ccccc2)nn(-c2ccnc(Nc3ccccc3)n2)c1-c1ccccc1 [Example 11a, calcium salt]" valuerelationsign== assayvalue=33
molecule="O=C(O)C[C@H](O)C[C@H](O)/C=C/c1cnn(-c2ccnc(Nc3ccccc3)n2)c1-c1cccc(C(F)(F)F)c1 [Example 11g, calcium salt]" valuerelationsign=> assayvalue=100
molecule="COc1nccc(-n2nc(C(C)C)c(/C=C/[C@@H](O)C[C@@H](O)CC(=O)O)c2-c2cccc(C(F)(F)F)c2)n1 [Example 11e, calcium salt]" valuerelationsign== assayvalue=2
molecule="O=C(O)C[C@H](O)C[C@H](O)CCc1c(-c2ccccc2)nn(-c2ccnc(Nc3ccccc3)n2)c1-c1ccccc1 [Example 11c]" valuerelationsign=> assayvalue=100
